parameter-measured: melting point

{"compound": "CC(=O)C1CCC2C3CCC4CC(=O)C(C)CC4(C)C3C(=O)CC12C (stereo not given)", "value-measured": "176 °C"}
{"compound": "CCCSc1c[nH]nc1C1=CCCN(C)C1", "value-measured": "111 °C"}
{"compound": "CCOC(=O)c1ccc(OCCCCCCc2cc(C)no2)cc1", "value-measured": "51 °C"}
{"compound": "COC(=O)C1=Cc2cc(-c3ccc(C(C)C)cc3)ccc2S(=O)(=O)CC1", "value-measured": "142 to 144 °C"}
{"compound": "CCCS(=O)(=O)c1sc(C(N)=O)c2c1-c1c(cnn1C)CC2", "value-measured": "142 to 143 °C"}
{"compound": "NC(=O)Nc1ccc2c(c1)N1CCCN=C1S2", "value-measured": "246 °C"}
{"compound": "Cc1ccnc(-c2nc(=O)c3ccccc3s2)c1", "value-measured": "200 °C"}
{"compound": "Cc1cc(OC(F)F)nc(NC(=O)Oc2ccccc2)n1", "value-measured": "56 to 58 °C"}
{"compound": "Cc1ccc(-c2ccc(S(=O)(=O)Nc3cc(C)no3)cc2)cc1", "value-measured": "194 to 198 °C"}
{"compound": "O=C1C(=Cc2ccc(Cl)cc2)CCCC1=Cc1ccc(Cl)cc1", "value-measured": "142 to 144 °C"}

input: Query: melting point; subject: CN(CCN1CCOCC1)Cc1ccc(COc2cccc3c2CN(C2CCC(=O)NC2=O)C3=O)cc1 (stereo not given)
output: 193 to 195 °C

input: Look up melting point for this compound: Cc1[nH]c(=O)c(C#N)c2c1CC(c1cccnc1)CC2 (stereo not given)
output: > 300 °C

input: For the compound COC(=O)C(CCON1C(=O)c2ccccc2C1=O)NC(=O)Cc1ccccc1 (stereo not given) , what melting point is on record?
output: 138 to 139 °C

input: melting point for COc1ccc2sc(-c3ccc(OCCN4CCCC4)cc3)cc2c1 ?
output: 123 to 126 °C

input: Please look up its melting point: NC(Cc1nc2cc(F)c(F)cc2nc1CP(=O)(O)O)C(=O)O (stereo not given)
output: 144 to 145 °C

input: Quick check: melting point of CC(=O)N1CCN(CCOc2cc(OC(C)C)c3c(Nc4c(Cl)cnc5c4OCO5)ncnc3c2)CC1 ?
output: 208 to 210 °C

input: Need melting point of CCOC(=O)c1cc(NCc2ccccc2)c(Nc2cccc(C(F)(F)F)c2)c(S(N)(=O)=O)c1 , thanks.
output: 189 to 190 °C

input: Which value of melting point has been reported for CCOC(=O)NC(=O)CC(=O)NC(=O)OCC in the records?
output: 177 to 178 °C

input: Quick check: melting point of O=CC(Cl)=Cc1cccc(Oc2ccc([N+](=O)[O-])c([N+](=O)[O-])c2)c1 ?
output: 100 to 101 °C

input: What does the data say about its melting point? Entry: COc1nc2cc(Cl)c(Cl)c(-n3c(CN4CCOCC4)nnc3-c3cccnc3)c2nc1OC
output: 178 to 179 °C

====

Reported melting point values for the following compounds.

{"compound-structure-string": "FC(F)(F)Oc1ccc(Nc2cc(-n3ccc(C(F)(F)F)n3)c3ccccc3n2)cc1", "value-measured": "128 to 130 °C"}
{"compound-structure-string": "O=C(O)C(=O)Nc1cccc(NC(=O)C(=O)O)c1Cl", "value-measured": "> 320 °C"}
{"compound-structure-string": "COc1ccc(Br)cc1OCCCCCc1ccc(F)cc1", "value-measured": "46 to 47 °C"}
{"compound-structure-string": "O=C(c1ccc(Cl)cc1Cl)N1CCc2cc(S(=O)(=O)N3CCN(c4cccc(Cl)c4)CC3)ccc21", "value-measured": "184 °C"}
{"compound-structure-string": "Clc1ccc(-c2cc(C3CCN(Cc4ccc(Cl)c(Cl)c4)CC3)n[nH]2)cc1", "value-measured": "171 to 174 °C"}

input: Record request: melting point value, item COC(=O)CCCc1cc2cc(Cl)ccc2n1S(=O)(=O)c1cccc2nc(C)sc12
output: 129 °C

input: Any idea what melting point was measured for Cn1ncc(/C=C/C(=O)Nc2ccc(Cc3n[nH]c(=O)o3)cc2)c1-c1ccc(F)cc1 ?
output: 262 to 263 °C

input: Please look up its melting point: CCN(CC)c1nc(C)nc(SC)c1NC(=O)CBr
output: 173 to 174 °C

input: Reported melting point, compound CCN1CCN(C(=O)c2ccc(C(=O)N3CCN(c4ncccc4NC(C)C)CC3)cc2)CC1 : ____
output: 130 to 131 °C

====

melting point for assorted compounds

Completed entries (count: 3):
{"compound": "Cc1cccc(-c2n[nH]cc2-c2ccc(F)c(-c3ccc[nH]3)c2)n1", "melting point": "141 to 142 °C"}
{"compound": "CC1=CC(C)(C)Nc2ccc3c(c21)C(=C1SCCCS1)Oc1ccc(F)cc1-3", "melting point": "120 to 122 °C"}
{"compound": "NS(=O)(=O)Nc1ccc(N2CCN(c3ccncc3)CC2)cc1", "melting point": "216 to 219 °C"}

input: # input compound: COc1ccccc1[C@H](c1cccc2ccccc12)[C@@](C)(C#N)C(=O)N1CCC(c2cccc(C(F)(F)F)c2)CC1 ; wanted: its melting point
output: 123 to 127 °C

input: I would be grateful if you could share the reported melting point for CCOC(=O)[C@H](CSCc1ccccc1)NC(=O)C(C)(C)NC(=O)[C@@H](SC(C)=O)C(C)C .
output: 69 to 71 °C

input: Query (compound): CN(C)S(=O)(=O)Oc1cccc2c1S(=O)(=O)N=C2C1=C(O)C(C(C)(C)C)N(Cc2ccc(F)cc2)C1=O (centres undefined) ; field requested: melting point
output: 116 to 126 °C

input: Reported melting point, compound CCOC(=O)c1ccc(C=C(C)c2ccc3c(c2)OCCC3(C)C)cc1 : ____
output: 48 to 50 °C

input: Record request: melting point value, item N#Cc1ccc(-c2nc(COc3ccc(CCCn4ccnc4)cc3)co2)s1
output: 73 to 74 °C

input: For the compound CCC(O)=C1C(=O)OC(C)(C)OC1=O , what melting point is on record?
output: 43 to 46 °C

====

parameter-measured: melting point

{"molecule": "COc1ccc(-c2nc(-c3ccc4c(c3)CCCN4C(C)=O)cs2)cc1OC", "melting point": "148 °C"}

input: Fill in: melting point of CNc1cc(Oc2ccc3c(C(=O)Nc4cccc(C(F)(F)F)c4)cncc3c2)ncn1 is ___
output: 205 to 208 °C

input: Can you look up the measured melting point of Cc1cc2c(s1)S(=O)CCc1cc(=O)n(-c3ccc(Cl)cc3)nc1-2 (centres undefined) for me?
output: 174 to 175 °C

input: So what's the measured melting point for this one? Cc1nnc2n1-c1ccccc1C(c1ccc(Cl)cc1)=NN2Cc1ccc(N)cc1
output: 234 to 237 °C

input: Quick check: melting point of C/C(=C(\C#N)C(N)=S)N1CCCN(c2ccccc2)CC1 ?
output: 151 to 153 °C

input: Given the molecule CN1CCN(c2cccc3c2C[C@H](NC(=O)c2ccc(OS(C)(=O)=O)cc2)CC3)CC1 , what is its reported melting point?
output: 199 to 200 °C

====

parameter-measured: melting point (°C)
Write the number in °C without appending the unit.

{"compound-structure-string": "COc1cc(Cl)c(/C(=N\\O)c2ccccc2F)cc1Cl", "parameter-measured": "melting point", "value-units": "°C", "value-measured": 188}

input: Item under review: CCn1c(Nc2ccc(C(F)(F)F)cc2C(F)(F)F)nc(C(F)(F)F)c(Cl)c1=O . Reported melting point?
output: 124

====

Overview of reported melting point across a group of molecules:

Recorded melting point, per entry:
{"molecule": "CC(C)Oc1ccc(CCCOc2nn(C)cc2CC(=O)O)c(OCc2ccc(Cl)cc2Cl)c1", "parameter-measured": "melting point", "value-measured": "102 to 103 °C"}
{"molecule": "CC(C)OC(=O)c1cc(N)ccc1Cl", "parameter-measured": "melting point", "value-measured": "50.5 to 52 °C"}
{"molecule": "CCOC(=O)C(=CNC1CC1)C(=O)c1c(F)cc(Cl)c(F)c1Cl", "parameter-measured": "melting point", "value-measured": "106 to 107 °C"}
{"molecule": "CC(C)(C)[C@@H]1CCc2nc3sc(C(=O)N[C@H](CN)c4cccc(NC(=O)c5ccno5)c4)cc3cc2C1", "parameter-measured": "melting point", "value-measured": "98 to 102 °C"}
{"molecule": "CCCOc1ccc(S(=O)(=O)NCCN(C)C)cc1-c1nc2cc(N)c(N)cc2c(=O)[nH]1", "parameter-measured": "melting point", "value-measured": "202 to 204 °C"}

Next, consider the following molecule.
input: Name the recorded melting point for Cc1cc(C#Cc2cccc(-c3ccccc3)c2)ccn1 .
output: 56 to 58 °C
